# Test system: INS1
# assay_notes: INS-1E survival protection against cytokine death – cell-based, luminescence, retest, dose response (AID 449756);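 also: cell death triggered by IL-1 beta plus TNF-alpha plus IFN-gamma mixture; protective hits raise ATP signal compared with cytokine alone wells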
# Type: functional
# condition_info: Rattus norvegicus
The source made the active and inactive calls.
Your reply should match one of these outcome classes. yes for active, no for inactive

Worked cases, answers included:
CCOC(=O)COc1ccc2ccccc2c1/C=C/[N+](=O)[O-] ... no
O=C(COc1ccc(Br)cc1)N1CCN(Cc2c[nH]c3ccccc23)CC1 ... yes
CCN1C/C(=C/c2ccc(OC)c(O)c2)C(=O)/C(=C/c2ccc(OC)c(O)c2)C1 ... yes
CCCCCCCCCCCCn1ccc(=N)cc1 ... yes

Ask: Which outcome was assigned to `CCc1ccc(Nc2n[n+](-c3ccccc3)c(-c3c(Cl)cccc3Cl)s2)cc1` in this test?
Result: yes

###

# Test system: P388;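 also: compound exposure lasted 48 hours before growth was measured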
# assay_notes: cells
# Format: functional
# condition_info: Mus musculus, P388
Active and inactive are the calls of the source.
Use one of these outcomes when replying: active, inactive

Some solved cases for reference:
CN(C)C(=O)/C=C/c1c[nH]c(=O)[nH]c1=O ... inactive
COc1cccc2c1C(=O)c1c(O)c3c(c(O)c1C2=O)CC(O)(C(C)=O)CC3O (centres undefined) ... active
C=C1C(=O)OCC2C(C(=O)O)=CC3C(C)C(C)=CC123 (centres undefined) ... inactive

Next item in the queue.
Ask: What outcome does the record of this test show for CN(C)CC(CC1=C(CC(CN(C)C)N(C)C)CCC1)N(C)C (centres undefined) ?
Result: inactive

###

Measured IC50 by item
# experimental_system: Mannose-6-phosphate isomerase (Homo sapiens, UniProt P34949)
# Sequence (P34949 whole entry): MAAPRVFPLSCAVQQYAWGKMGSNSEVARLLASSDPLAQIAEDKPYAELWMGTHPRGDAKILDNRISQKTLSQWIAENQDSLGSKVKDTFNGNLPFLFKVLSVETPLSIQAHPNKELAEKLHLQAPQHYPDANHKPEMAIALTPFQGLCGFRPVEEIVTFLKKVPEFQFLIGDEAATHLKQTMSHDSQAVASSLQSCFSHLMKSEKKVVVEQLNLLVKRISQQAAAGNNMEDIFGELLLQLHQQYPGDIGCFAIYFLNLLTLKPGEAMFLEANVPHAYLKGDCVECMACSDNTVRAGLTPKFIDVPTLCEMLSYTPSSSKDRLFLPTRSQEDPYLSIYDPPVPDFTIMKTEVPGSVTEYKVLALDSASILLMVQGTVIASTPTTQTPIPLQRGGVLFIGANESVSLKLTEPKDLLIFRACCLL
# assay_notes: MPI inhibition at elevated mannose 6-phosphate – biochemical, fluorescence intensity, high mannose 6-phosphate, primary screen (AID 1220)
Calls of active or inactive are those of the source.

CCOC(=O)N1CCN(C(c2cccnc2)c2ccc3cccnc3c2O)CC1 (stereo unspecified) ... 32 µM (active)

Ask: Consider the compound shown here: COCC(C)N1C(=O)Cc2c1nc(N)c1c(N)nc(N3CCN(c4ccccc4F)CC3)c(C#N)c21 (stereo unspecified) What is its recorded IC50?
Result: > 50 µM (not active)

Ask: Recorded IC50 for `O=[N+]([O-])c1cc2c(cc1/C=N/c1ccccc1)OCO2` , please?
Result: > 50 µM (not active)

Ask: Consider the compound shown here: `CCOC(=O)c1c(C)oc2c1c(/C=N/CCC(=O)O)c(O)c1ccccc12` What is its recorded IC50?
Result: > 50 µM (not active)

Ask: Give its IC50 value. Item: `COc1ccc2c(c1)CCC(/C=N/c1ccc3c(c1)OCO3)=C2O`
Result: 15.6 µM (active)

Ask: # query: IC50 of entry `CC1=CC(=Nc2c(C)n(C)n(-c3ccccc3)c2=O)C=C(C)C1=O`
Result: 13.2 µM (active)

###

# experimental_system: Corticotropin-releasing factor receptor 2/Corticotropin-releasing factor-binding protein (Homo sapiens, UniProt P24387+Q13324)
# Sequence (Q13324 whole entry): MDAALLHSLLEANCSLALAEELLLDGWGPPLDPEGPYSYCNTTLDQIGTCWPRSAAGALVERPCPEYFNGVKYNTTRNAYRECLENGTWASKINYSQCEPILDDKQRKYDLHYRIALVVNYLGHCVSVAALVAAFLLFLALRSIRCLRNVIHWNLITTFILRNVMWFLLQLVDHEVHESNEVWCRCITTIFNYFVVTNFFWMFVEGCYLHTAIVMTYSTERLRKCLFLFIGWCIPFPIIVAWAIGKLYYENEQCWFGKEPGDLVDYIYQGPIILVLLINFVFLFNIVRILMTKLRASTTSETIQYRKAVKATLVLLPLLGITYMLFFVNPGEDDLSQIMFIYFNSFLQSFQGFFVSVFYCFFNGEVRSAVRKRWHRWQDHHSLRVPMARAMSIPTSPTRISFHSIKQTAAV
# Sequence (P24387 whole entry): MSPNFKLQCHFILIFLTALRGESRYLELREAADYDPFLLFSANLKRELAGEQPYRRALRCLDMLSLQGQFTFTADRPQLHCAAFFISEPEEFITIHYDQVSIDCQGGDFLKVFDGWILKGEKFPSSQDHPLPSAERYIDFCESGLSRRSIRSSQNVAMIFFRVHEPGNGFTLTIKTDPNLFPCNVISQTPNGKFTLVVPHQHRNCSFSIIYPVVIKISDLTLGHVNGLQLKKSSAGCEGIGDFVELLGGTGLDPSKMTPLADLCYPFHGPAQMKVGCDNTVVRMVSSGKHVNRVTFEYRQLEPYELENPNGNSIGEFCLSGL
# assay_notes: Dose Response confirmation of uHTS hits for small molecule antagonists of the CRF-binding protein and CRF-R2 receptor complex.
# Assay type: functional
# condition_info: read-out: IC50_Mean
Active and inactive are the calls of the source.
Field 'call' accepts YES (active), NO (inactive)

Ask: For `COc1ccc(/C=C/C(=O)NC(=S)Nc2ccc(S(=O)(=O)Nc3cc(OC)ncn3)cc2)cc1` , what call appears in the results of this test?
Result: NO

Ask: Fill in: this test's call for `COc1cccc2ccc(CC(O)(c3ccccc3)c3ccccc3)nc12` is ___
Result: YES

Ask: Could you check what this test reported for `CCOc1ccc(CNC(=O)CCC(=O)N2Cc3cccc(OC)c3Oc3ncccc32)cc1` ?
Result: NO

Ask: What outcome does the record of this test show for `CCc1ccc(NC(=O)CSc2nc(N)c(NC(=O)c3ccc(F)c(F)c3)c(O)n2)cc1` ?
Result: NO

Ask: Field: outcome | Entry: `CCN(CC)S(=O)(=O)c1ccc(Cl)c(NC(=O)c2cc(Cl)cc(Cl)c2)c1`
Result: YES

###

# assay_notes: Luminescence Cell-Based Dose Response HTS to Identify Activators of Luciferase Translation or Activity in H4 […] Cells. [Related pubchem assays: 1829 (Project Summary), 1814 (Primary HTS)]
# Assay type: functional
The source made the active and inactive calls.
Let's look at some compounds and their measured EC50.

Answered examples (4):
CCOc1ccc2[nH]c(SCC3CC3(Cl)Cl)nc2c1 (stereo not given) ... 29.7 µM (active)
Cc1nc(S(=O)(=O)N2CCOCC2)c(C#N)c(C)c1Cl ... 55.7 µM (active)
Cc1nc2cc(Nc3nnc(-c4ccccc4)c4ccccc34)ccc2n1C ... < 0.1 µM (active)
[O-][n+]1cc(-c2cc3ccccc3o2)[n+]([O-])c2c1CCCC2 ... 8.68 µM (active)

Ask: Which EC50 is reported for this compound? `Cn1sc(NC(=O)c2cccc(Cl)c2)nc1=O`
Result: 7.11 µM (active)

###

# experimental_system: Delta-type opioid receptor (Homo sapiens, UniProt P41143)
# Sequence (P41143 whole entry): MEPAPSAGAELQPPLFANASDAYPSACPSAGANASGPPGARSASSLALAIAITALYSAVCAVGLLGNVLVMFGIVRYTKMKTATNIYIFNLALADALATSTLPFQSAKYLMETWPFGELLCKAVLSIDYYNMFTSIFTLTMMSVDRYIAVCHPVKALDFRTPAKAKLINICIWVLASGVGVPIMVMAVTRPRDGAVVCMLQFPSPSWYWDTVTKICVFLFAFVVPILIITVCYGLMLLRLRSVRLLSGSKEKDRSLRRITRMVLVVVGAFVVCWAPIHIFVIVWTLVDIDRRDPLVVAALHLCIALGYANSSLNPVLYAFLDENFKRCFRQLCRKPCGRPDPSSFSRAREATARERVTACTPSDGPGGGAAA
# assay_notes: Counterscreen for agonists of heterodimerization of the mu 1 (OPRM1) and delta 1 (OPRD1) opioid receptors: Luminescence-based cell-based high throughput dose response assay to identify agonists of OPRD1 homodimerization. [Related pubchem assays (depositor defined):AID504326, AID504355, AID504692, AID504904, AID504905]
# Type: functional
Active and inactive are the calls of the source.
readout: EC50

CSC(=Nc1ccccc1)N=C(SCc1ccccc1)N(C)C ... > 92.4 µM (inactive)
CCc1cccc(C)c1N=C(S)NCC(c1cccnc1)N(C)C (stereo not given) ... 79.4 µM (inactive)
CN(C)CCCN(C(=O)c1ccc(S(=O)(=O)N2CCc3ccccc3C2)cc1)c1nc2c(F)cc(F)cc2s1 ... > 92.5 µM (inactive)
CCOC(=O)C1(CC2CC2)CCN(Cc2cnc(-c3ccccc3C)nc2)CC1 ... > 92.5 µM (inactive)

Proceed to the following item.
Ask: EC50 lookup needed for `CCc1ccc(Nc2n[n+](-c3ccccc3)c(-c3c(Cl)cccc3Cl)s2)cc1` , thanks.
Result: 14.2 µM (inactive)

###

# key: entry, value: AC50
# experimental_system: UniProt:P33261
# assay_notes: Cytochrome panel assay with activity outcomes. Panel member name: p450-cyp2c19 Compounds with AC50 equal or less than 10 uM are considered active
# Type: functional
# condition_info: read-out: AC50

COc1ccc(C2c3c(ncn(CCN4CCOCC4)c3=N)Oc3ccc4ccccc4c32)cc1OC (stereo not drawn) ... 25.1 µM (inconclusive)
Nc1nc(S)nc2c1C1(CCCC1)Cc1ccccc1-2 ... 11.2 µM (inconclusive)

Ask: Quick one: AC50 for `O=[N+]([O-])c1ccccc1/C=N/n1c(S)nnc1COc1ccccc1` ?
Result: 11.2 µM (inconclusive)

Ask: Please give the measured AC50 for this compound: `CCOC(=O)CCCNC(=O)CCCNC(=O)C(c1ccccc1)c1ccccc1`
Result: 14.1 µM (inconclusive)

Ask: Given the entry `Cc1cc(C)c(S(=O)(=O)N2CCN(c3ccc([N+](=O)[O-])c(NCc4ccco4)c3)CC2)c(C)c1` , report its measured AC50.
Result: 0.708 µM (inconclusive)

Ask: Reported AC50 for `CC(C)c1cccc2cc3c(nc12)-c1cccc(=O)n1C3` : what is it?
Result: 39.8 µM (inconclusive)

Ask: What value of AC50 has been recorded for this entry: `Cc1cccn2c(=O)c(/C=N/Cc3ccco3)c(Nc3ccc(SC(F)F)cc3)nc12`
Result: 4.47 µM (inconclusive)

Ask: Given `CO[C@@H]1COC(=O)CCC[C@@H](C)[C@H](OC)COC(=O)[C@H](Cc2ccccc2)NC(=O)C/C=C\[C@H]1C` , state its recorded AC50.
Result: 0.00251 µM (inconclusive)

###

AC50 values for the compounds below.
# experimental_system: Cytochrome P450 2C19 (Homo sapiens, UniProt P33261)
# Sequence (P33261 whole entry): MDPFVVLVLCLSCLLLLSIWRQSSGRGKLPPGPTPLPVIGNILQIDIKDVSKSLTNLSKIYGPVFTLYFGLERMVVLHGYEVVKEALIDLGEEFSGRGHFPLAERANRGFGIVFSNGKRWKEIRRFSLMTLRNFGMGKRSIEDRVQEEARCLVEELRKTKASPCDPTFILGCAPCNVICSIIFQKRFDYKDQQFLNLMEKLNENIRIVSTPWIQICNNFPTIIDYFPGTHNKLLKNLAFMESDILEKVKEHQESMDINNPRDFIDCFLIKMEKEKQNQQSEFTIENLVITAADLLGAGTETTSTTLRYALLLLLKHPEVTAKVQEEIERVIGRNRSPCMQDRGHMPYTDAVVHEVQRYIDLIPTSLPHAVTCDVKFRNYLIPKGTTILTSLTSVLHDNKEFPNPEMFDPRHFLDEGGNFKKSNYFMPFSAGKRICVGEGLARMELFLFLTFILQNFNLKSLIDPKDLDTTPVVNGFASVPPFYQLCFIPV
# assay_notes: Cytochrome panel assay with activity outcomes. Panel member name: p450-cyp2c19 Compounds with AC50 equal or less than 10 uM are considered active
# Type: functional
# condition_info: read-out: AC50

Here is how some compounds turned out for AC50.
CC(C)NC(=O)N1CC[C@@]2(CCCN(S(C)(=O)=O)C2)C1 ... 39.8 µM (inconclusive)
Oc1ccc(OCc2ccccc2)cc1 ... 6.31 µM (inconclusive)
CC(=O)C1=C(O)C=C(c2ccco2)CC1c1ccco1 (stereo unspecified) ... 2.24 µM (inconclusive)
COC(=O)CN1C(=O)S/C(=C/c2ccc(N3CCCCC3)o2)C1=O ... 5.62 µM (inconclusive)
COCCCNC(=O)c1c(NC(=O)c2cccs2)sc2c1CCCC2 ... 4.47 µM (inconclusive)
CCNc1ncc2nc(-c3ccccc3)c(=O)n(CCOC)c2n1 ... 31.6 µM (inconclusive)
C/C(=N\Nc1nnc(-c2ccccc2)c(-c2ccccc2)n1)c1cccc([N+](=O)[O-])c1 ... 17.8 µM (inconclusive)
CC(=O)NNC(=O)N1Cc2ccccc2Oc2ccc(Cl)cc21 ... 5.01 µM (inconclusive)
CCCC[N+]12CCC(CC1)C(C(=O)c1cccs1)C2 (stereo unspecified) ... 39.8 µM (inconclusive)
Cc1nc(-c2cccnc2)sc1C(=O)Nc1ccc(F)cc1F ... 8.91 µM (inconclusive)

Next, consider the following compound.
Ask: Need AC50 of `CCOc1ccc(S(=O)(=O)NCc2ccc(F)cc2)c2cccnc12` , thanks.
Result: 7.94 µM (inconclusive)
